Target: KRAS-G12D protein (Homo sapiens, UniProt P01116, G12D)
Construct: host or cells: Aspc-1 cells
Sequence (P01116 1-188 isoform P01116-2 G12D): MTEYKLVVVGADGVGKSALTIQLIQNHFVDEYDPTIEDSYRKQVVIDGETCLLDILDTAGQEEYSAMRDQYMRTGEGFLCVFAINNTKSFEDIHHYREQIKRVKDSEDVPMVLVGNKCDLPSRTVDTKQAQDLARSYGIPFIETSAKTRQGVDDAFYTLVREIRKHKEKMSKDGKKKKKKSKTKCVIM
Experiment: KRAS-G12D protein degradation study in Aspc-1 cells (western blot)
Format: cell-based
Settings: ASPC1, 24 h, Aspc-1 cells treated with 0.1 μM compound, 24 hours; read-out: Rate of protein degradation (KRAS^G12D)
Catalogue of inhibition at 0.1 µM values

C#Cc1c(F)ccc2cc(O)cc(-c3ncc4c(N5CC6CCC(C5)N6)nc(OCC5(CN6CCN(c7ccc8c(c7)C(=O)N(C7CCC(=O)NC7=O)C8=O)CC6)CC5)nc4c3F)c12 (centres unmarked) : > 60%
C#Cc1c(F)ccc2cc(O)cc(-c3ncc4c(N5CC6CCC(C5)N6)nc(OCCCN5CCN(C(=O)CN6CCN(c7cccc8c7C(=O)N(C7CCC(=O)NC7=O)C8=O)CC6)CC5)nc4c3F)c12 (centres unmarked) : ≤ 10%
C#Cc1c(F)ccc2cc(O)cc(-c3ncc4c(N5CC6CCC(C5)N6)nc(OCC5(CN6CCN(C(=O)CN7CCN(c8ccc9c(c8)C(=O)N(C8CCC(=O)NC8=O)C9=O)CC7)CC6)CC5)nc4c3F)c12 (centres unmarked) : 31 to 60%
C#Cc1c(F)ccc2cc(O)cc(-c3ncc4c(N5CC6CCC(C5)N6)nc(OCC5C[C@@H](NC(=O)CCCCCCCCCCC(=O)N6CCC(c7ccc8c(C9CCC(=O)NC9=O)nn(C)c8c7)CC6)CN5C)nc4c3F)c12 (some centres unmarked) : ≤ 10%
C#Cc1c(F)ccc2cc(O)cc(-c3ncc4c(N5CC6CCC(C5)N6)nc(OCC5(CN6CCC(N7CCC(c8ccc9c(C%10CCC(=O)NC%10=O)nn(C)c9c8)CC7)CC6)CC5)nc4c3F)c12 (centres unmarked) : > 60%
C#Cc1c(F)ccc2cc(O)cc(-c3ncc4c(N5CC6CCC(C5)N6)nc(OCC5(CN6CCN(CCCCCCCCCCC(=O)N7CCN(C(=O)C[C@H](NC(=O)[C@@H]8C[C@@H](O)CN8C(=O)[C@@H](NC(=O)C8(F)CC8)C(C)(C)C)c8ccc(-c9scnc9C)cc8)CC7)CC6)CC5)nc4c3F)c12 : 11 to 30%
C#Cc1c(F)ccc2cc(O)cc(-c3ncc4c(N5CC6CCC(C5)N6)nc(OCC5(CN6CCC7(CC6)CCN(c6ccc(NC8CCC(=O)NC8=O)cc6F)CC7)CC5)nc4c3F)c12 (centres unmarked) : 31 to 60%
C#Cc1c(F)ccc2cc(O)cc(-c3ncc4c(N5CC6CCC(C5)N6)nc(OC5CCN(CCCCCCCCCCC(=O)N[C@H](C(=O)N6C[C@H](O)C[C@H]6C(=O)N[C@@H](C)c6ccc(-c7scnc7C)cc6)C(C)(C)C)CC5)nc4c3F)c12 : 31 to 60%

Req: Bench note: what inhibition at 0.1 µM did C#Cc1c(F)ccc2cc(O)cc(-c3ncc4c(N5CC6CCC(C5)N6)nc(OCC5(CN6CCC(C(=O)N7CCN(c8ccc(NC9CCC(=O)NC9=O)cc8F)CC7)CC6)CC5)nc4c3F)c12 (centres unmarked) show?
Resp: 11 to 30%

Req: How about this compound: C#Cc1c(F)ccc2cc(O)cc(-c3ncc4c(N5CC6CCC(C5)N6)nc(OCC5CCN(CCCCCCCCCCC(=O)N[C@H](C(=O)N6C[C@H](O)C[C@H]6C(=O)N[C@@H](C)c6ccc(-c7scnc7C)cc6)C(C)(C)C)C5)nc4c3F)c12 (some centres unmarked)
Resp: 31 to 60%

Req: How about this compound: C#Cc1c(F)ccc2cc(O)cc(-c3ncc4c(N5CC6CCC(C5)N6)nc(OCC5CCN(CC(=O)N6CCC(c7ccc8c(C9CCC(=O)NC9=O)nn(C)c8c7)CC6)C5)nc4c3F)c12 (centres unmarked)
Resp: 31 to 60%

Req: How about this compound: C#Cc1c(F)ccc2cc(O)cc(-c3ncc4c(N5CC6CCC(C5)N6)nc(OCC5(CN6CCC7(CC6)CC(N6CCC(c8ccc9c(C%10CCC(=O)NC%10=O)nn(C)c9c8)CC6)C7)CC5)nc4c3F)c12 (centres unmarked)
Resp: > 60%

* * *

Target: KRAS-G12D protein (Homo sapiens, UniProt P01116, G12D)
Construct: host or cells: Aspc-1 cells
Assay: KRAS-G12D protein degradation study in Aspc-1 cells (western blot)
Format: cell-based
Conditions: ASPC1, 24 h, Aspc-1 cells treated with 1 μM compound, 24 hours; read-out: Rate of protein degradation (KRAS^G12D)
READOUT_NAME: inhibition at 1 µM

Reference set, count: 4
CCc1c(F)ccc2cc(O)cc(-c3ncc4c(N5CC6CCC(C5)N6)nc(OC[C@@H]5CCCN5C(=O)CCCCCCCC(=O)N[C@H](C(=O)N5C[C@H](O)C[C@H]5C(=O)NCc5ccc(-c6scnc6C)cc5)C(C)(C)C)nc4c3F)c12 : 31 to 60%
C#Cc1c(F)ccc2cc(O)cc(-c3ncc4c(N5CC6CCC(C5)N6)nc(OC5CCN(CCCCCCCCCCC(=O)N[C@H](C(=O)N6C[C@H](O)C[C@H]6C(=O)N[C@@H](C)c6ccc(-c7scnc7C)cc6)C(C)(C)C)CC5)nc4c3F)c12 : > 60%
C#Cc1c(F)ccc2cc(O)cc(-c3ncc4c(N5CC6CCC(C5)N6)nc(OC5CCN(CCCCCCCCCC(=O)N6CCC(c7ccc8c(C9CCC(=O)NC9=O)nn(C)c8c7)CC6)CC5)nc4c3F)c12 (centres unmarked) : 11 to 30%
C#Cc1c(F)ccc2cc(O)cc(-c3ncc4c(N5CC6CCC(C5)N6)nc(OCCCN5CCN(C(=O)C[C@H](NC(=O)[C@@H]6C[C@@H](O)CN6C(=O)[C@@H](NC(=O)C6(F)CC6)C(C)(C)C)c6ccc(-c7scnc7C)cc6)CC5)nc4c3F)c12 : 11 to 30%

Req: Bench note: what inhibition at 1 µM did C#Cc1c(F)ccc2cc(O)cc(-c3ncc4c(N5CC6CCC(C5)N6)nc(OC5CCN(CCCCCCCCCC(=O)N[C@H](C(=O)N6C[C@H](O)C[C@H]6C(=O)NCc6ccc(-c7scnc7C)cc6)C(C)(C)C)CC5)nc4c3F)c12 show?
Resp: > 60%

Req: How about this molecule: C#Cc1c(F)ccc2cc(O)cc(-c3ncc4c(N5CC6CCC(C5)N6)nc(OC5CCN(CCCCCCCCCCCC(=O)N[C@H](C(=O)N6C[C@H](O)C[C@H]6C(=O)NCc6ccc(-c7scnc7C)cc6)C(C)(C)C)CC5)nc4c3F)c12
Resp: > 60%

Req: How about this molecule: C#Cc1c(F)ccc2cc(O)cc(-c3ncc4c(N5CC6CCC(C5)N6)nc(OCC5CCN(CCCCCCCCCCC(=O)N[C@H](C(=O)N6C[C@H](O)C[C@H]6C(=O)N[C@@H](C)c6ccc(-c7scnc7C)cc6)C(C)(C)C)C5)nc4c3F)c12 (some centres unmarked)
Resp: > 60%

Req: How about this molecule: C#Cc1c(F)ccc2cc(O)cc(-c3ncc4c(N5CC6CCC(C5)N6)nc(OCCN5CCN(CCCCCCCC(=O)N[C@H](C(=O)N6C[C@H](O)C[C@H]6C(=O)NCc6ccc(-c7scnc7C)cc6)C(C)(C)C)CC5)nc4c3F)c12
Resp: 11 to 30%

* * *

Target: KRAS-G12D protein (Homo sapiens, UniProt P01116, G12D)
Construct: host or cells: Aspc-1 cells
Assay: KRAS-G12D protein degradation study in Aspc-1 cells (western blot)
Format: cell-based
Settings: Aspc-1 cells treated with 0.1 μM compound, 24 hours
READOUT_NAME: Rate of protein degradation (KRAS^G12D)

C#Cc1c(F)ccc2cc(O)cc(-c3ncc4c(N5CC6CCC(C5)N6)nc(OCC5(CN6CCN(C(=O)CN7CCC(c8ccc9c(C%10CCC(=O)NC%10=O)nn(C)c9c8)CC7)CC6)CC5)nc4c3F)c12 (centres unmarked) [Compound 119] : + (11 to 30%)
C#Cc1c(F)ccc2cc(O)cc(-c3ncc4c(N5CC6CCC(C5)N6)nc(OC5CCN(CC(=O)N6CCC7(CC6)CC(N6CCC(c8ccc9c(C%10CCC(=O)NC%10=O)nn(C)c9c8)CC6)C7)C5)nc4c3F)c12 (centres unmarked) : + (11 to 30%)
C#Cc1c(F)ccc2cc(O)cc(-c3ncc4c(N5CC6CCC(C5)N6)nc(OCC5(CN6CCC(c7ccc8c(C9CCC(=O)NC9=O)nn(C)c8c7)CC6)CC5)nc4c3F)c12 (centres unmarked) : +++ (greater than 60%)
C#Cc1c(F)ccc2cc(O)cc(-c3ncc4c(N5CC6CCC(C5)N6)nc(OCC5(CN6CCN(C(=O)CN7CCC(c8ccc9c(C%10CCC(=O)NC%10=O)nn(C)c9c8)CC7)CC6)CC5)nc4c3F)c12 (centres unmarked) [Compound 92] : +++ (greater than 60%)

* * *

Target: KRAS-G12D protein (Homo sapiens, UniProt P01116, G12D)
Construct: host or cells: Aspc-1 cells
Assay: KRAS-G12D protein degradation study in Aspc-1 cells (western blot)
Type: cell-based
Conditions: ASPC1, 24 h, Aspc-1 cells treated with 0.1 μM compound, 24 hours; read-out: Rate of protein degradation (KRAS^G12D)
READOUT_NAME: inhibition at 0.1 µM

Reference set, count: 5
C#Cc1c(F)ccc2cc(O)cc(-c3ncc4c(N5CC6CCC(C5)N6)nc(OCC5(CN6CCN(C(=O)CN7CCN(c8ccc(NC9CCC(=O)NC9=O)cc8F)CC7)CC6)CC5)nc4c3F)c12 (centres unmarked) : ≤ 10%
C#Cc1c(F)ccc2cc(O)cc(-c3ncc4c(N5CC6CCC(C5)N6)nc(OCCN5CCN(C(=O)CCCCCOc6cc(-c7scnc7C)ccc6CNC(=O)[C@@H]6C[C@@H](O)CN6C(=O)[C@@H](NC(=O)C6(F)CC6)C(C)(C)C)CC5)nc4c3F)c12 : 11 to 30%
C#Cc1c(F)ccc2cc(O)cc(-c3ncc4c(N5CC6CCC(C5)N6)nc(OC5CCN(CC(=O)N6CCN(C(=O)C[C@H](NC(=O)[C@@H]7C[C@@H](O)CN7C(=O)[C@@H](NC(=O)C7(F)CC7)C(C)(C)C)c7ccc(-c8scnc8C)cc7)CC6)CC5)nc4c3F)c12 : ≤ 10%
C#Cc1c(F)ccc2cc(O)cc(-c3ncc4c(N5CC6CCC(C5)N6)nc(OC5CCN(CCCCCCOc6cc(-c7scnc7C)ccc6CNC(=O)[C@@H]6C[C@@H](O)CN6C(=O)[C@@H](NC(=O)C6(F)CC6)C(C)(C)C)CC5)nc4c3F)c12 : ≤ 10%
CCc1c(F)ccc2cc(O)cc(-c3ncc4c(N5CC6CCC(C5)N6)nc(OC5CCN(CCCCCCCCCCC(=O)N[C@H](C(=O)N6C[C@H](O)C[C@H]6C(=O)N[C@@H](C)c6ccc(-c7scnc7C)cc6)C(C)(C)C)CC5)nc4c3F)c12 : 31 to 60%

Req: Bench note: what inhibition at 0.1 µM did C#Cc1c(F)ccc2cc(O)cc(-c3ncc4c(N5CC6CCC(C5)N6)nc(OCCCN5CCN(C(=O)CN6CCN(c7ccc8c(c7)C(=O)N(C7CCC(=O)NC7=O)C8=O)CC6)CC5)nc4c3F)c12 (centres unmarked) show?
Resp: ≤ 10%

Req: How about this compound: C#Cc1c(F)ccc2cc(O)cc(-c3ncc4c(N5CC6CCC(C5)N6)nc(OCCCN5CCN(C(=O)C[C@H](NC(=O)[C@@H]6C[C@@H](O)CN6C(=O)[C@@H](NC(=O)C6(F)CC6)C(C)(C)C)c6ccc(-c7scnc7C)cc6)CC5)nc4c3F)c12
Resp: ≤ 10%

Req: How about this compound: C#Cc1c(F)ccc2cc(O)cc(-c3ncc4c(N5CC6CCC(C5)N6)nc(OCCCN5CCN(CC(=O)N6CCN(c7cccc8c7C(=O)N(C7CCC(=O)NC7=O)C8=O)CC6)CC5)nc4c3F)c12 (centres unmarked)
Resp: ≤ 10%
